Entries and their melting point

CCC1(CC)C(=O)N(c2ccc(-c3csc(Nc4ccc5[nH]ncc5c4)n3)cc2)C1=O :: 186 to 188 °C
CCC1(CC)C(=O)N(c2ccc(-c3csc(Nc4cccc5ccccc45)n3)cc2)C1=O :: 69 to 71 °C
CCC1(CC)C(=O)N(c2ccc(-c3csc(Nc4ccc(C(F)(F)F)cc4)n3)cc2)C1=O :: 170 to 172 °C
CCC1(CC)C(=O)N(c2ccc(-c3csc(Nc4c(Cl)cc(Cl)cc4Cl)n3)cc2)C1=O :: 78 to 80 °C
CCC1(CC)C(=O)N(c2ccc(-c3csc(Nc4c(F)c(F)c(F)c(F)c4F)n3)cc2)C1=O :: 162 to 164 °C

Data request, read-out melting point, for CCC1(CC)C(=O)N(c2ccc(-c3csc(Nc4cc(C)cc(C)c4)n3)cc2)C1=O
140 to 143 °C

Which melting point is listed for CCC1(CC)C(=O)N(c2ccc(-c3csc(Nc4ccc(F)cc4)n3)cc2)C1=O ?
155 to 157 °C

Name the recorded melting point for CCC1(CC)C(=O)N(c2ccc(-c3csc(Nc4ccc(Cl)cc4)n3)cc2)C1=O .
164 to 166 °C

---

# Tested on: lung carcinoma (A549) cells
# Assay: Antiproliferative assay (MTT or SRB), A549
# Assay type: cell-based, human
# Particulars: IC50 Balb/3T3 / IC50 A-549
Measurement Kind: Calculated Selectivity Index SI
API doc: respond with a numeric literal and nothing else, no unit.

CCC1(CC)C(=O)N(c2ccc(-c3csc(Nc4ccc(C(F)(F)F)cc4)n3)cc2)C1=O :: 1.58
CCC1(CC)C(=O)N(c2ccc(-c3csc(Nc4ccc5[nH]ncc5c4)n3)cc2)C1=O :: 1.08
CCC1(CC)C(=O)N(c2ccc(-c3csc(Nc4cc(OC)c(OC)c(OC)c4)n3)cc2)C1=O :: 1.16

Now for the compound whose Calculated Selectivity Index SI we want.
Which measured Calculated Selectivity Index SI value corresponds to CCC1(CC)C(=O)N(c2ccc(-c3csc(Nc4c(F)c(F)c(F)c(F)c4F)n3)cc2)C1=O ?
3.04

---

# Target Of Assay: human neutrophil elastase (HNE) (Homo sapiens)
# Sequence (P08246 30-267): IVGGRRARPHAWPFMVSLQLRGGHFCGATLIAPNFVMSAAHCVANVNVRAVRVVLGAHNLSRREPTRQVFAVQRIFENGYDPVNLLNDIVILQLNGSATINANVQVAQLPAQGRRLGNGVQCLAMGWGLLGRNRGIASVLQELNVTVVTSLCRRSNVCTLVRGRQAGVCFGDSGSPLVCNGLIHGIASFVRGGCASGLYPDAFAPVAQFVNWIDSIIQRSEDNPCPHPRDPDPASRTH
# Assay: Kinetic analysis of the inhibition of human neutrophil elastase (Lineweaver-Burk, Dixon, secondary plots)
# Particulars: secondary plot of slope versus inhibitor concentration; read-out: Ki (enzyme-inhibitor dissociation constant)
pKi: −log10 of the molar value.
Rule: pKi of 7 or more gives Met; anything lower gives Not met.

CCC1(CC)C(=O)N(c2ccc(-c3csc(Nc4cccc5ccccc45)n3)cc2)C1=O [3h] :: Met

Given the entry CCC1(CC)C(=O)N(c2ccc(-c3csc(Nc4c(Cl)cc(Cl)cc4Cl)n3)cc2)C1=O [3j] , answer whether its pKi meets or surpasses 7.
Not met

Is reported pKi greater than or equal to 7 here: CCC1(CC)C(=O)N(c2ccc(-c3csc(Nc4ccc(S(N)(=O)=O)cc4)n3)cc2)C1=O [3e]
Met

Threshold query (pKi >= 7) on CCC1(CC)C(=O)N(c2ccc(-c3csc(Nc4ccc(C(F)(F)F)cc4)n3)cc2)C1=O [3i]
Not met

Say whether CCC1(CC)C(=O)N(c2ccc(-c3csc(Nc4ccc(Cl)cc4)n3)cc2)C1=O [3a] shows pKi of 7 or more.
Not met

---

# Target Of Assay: human neutrophil elastase (HNE) (Homo sapiens)
# Assay: Human neutrophil elastase inhibition assay (spectrofluorimetric, MeOSuc-AAPV-AMC substrate)
Measurement Kind: IC50 (nM)
Give a bare numeral; the unit nM is implied.

Below, 2 compounds whose answers are already recorded.
CCC1(CC)C(=O)N(c2ccc(-c3csc(Nc4c(Cl)cc(Cl)cc4Cl)n3)cc2)C1=O [3j] :: 249
CCC1(CC)C(=O)N(c2ccc(-c3csc(Nc4ccc(F)cc4)n3)cc2)C1=O [3b] :: 176

From here, focus on the item given below.
Data request, read-out IC50, for CCC1(CC)C(=O)N(c2ccc(-c3csc(Nc4ccc(Cl)cc4)n3)cc2)C1=O [3a]
227
